What pIC50 was measured for each of the following?
target: NS3-NS4 (Hepatitis C virus genotype 1a, UniProt P27958)
Sequence (P27958 1027-1657): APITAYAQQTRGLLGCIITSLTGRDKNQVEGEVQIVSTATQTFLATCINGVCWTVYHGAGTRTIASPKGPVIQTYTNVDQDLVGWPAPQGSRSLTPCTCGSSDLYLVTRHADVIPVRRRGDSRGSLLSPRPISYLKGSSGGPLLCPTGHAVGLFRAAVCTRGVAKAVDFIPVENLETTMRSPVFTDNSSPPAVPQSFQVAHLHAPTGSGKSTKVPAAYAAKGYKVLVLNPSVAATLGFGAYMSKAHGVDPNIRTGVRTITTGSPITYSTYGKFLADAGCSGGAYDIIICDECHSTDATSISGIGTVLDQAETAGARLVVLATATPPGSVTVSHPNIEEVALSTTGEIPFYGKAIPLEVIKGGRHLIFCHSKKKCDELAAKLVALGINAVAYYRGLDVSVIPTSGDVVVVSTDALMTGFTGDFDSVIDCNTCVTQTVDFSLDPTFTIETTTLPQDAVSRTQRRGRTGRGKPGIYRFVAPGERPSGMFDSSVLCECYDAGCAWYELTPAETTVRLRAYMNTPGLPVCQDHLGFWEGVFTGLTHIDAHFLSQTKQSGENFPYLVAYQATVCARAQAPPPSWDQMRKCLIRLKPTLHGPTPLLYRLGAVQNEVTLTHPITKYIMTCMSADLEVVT
Sequence (P27958 1658-1711): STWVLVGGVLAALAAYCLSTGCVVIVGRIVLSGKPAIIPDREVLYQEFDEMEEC
pIC50: −log10 of the molar value.

Per the records, this compound ( COCC1(S(=O)(=O)NC(=O)[C@@]23C[C@H]2CCCCCCC[C@H](NC(=O)OC(C)(C)C)C(=O)N2C[C@H](OC(=O)N4Cc5cccc(F)c5C4)C[C@H]2C(=O)N3)CC1 ) has pIC50 equal to > 7.00

Per the records, this compound ( O=C1N[C@]2(C(=O)NS(=O)(=O)C3CC3)C[C@H]2/C=C\CCCCC[C@H](Nc2nc(-c3ccc(F)cc3)cs2)C(=O)N2C[C@H](OC(=O)N3Cc4cccc(F)c4C3)C[C@@H]12 ) has pIC50 equal to > 7.00

Per the records, this compound ( Cc1cnc(N[C@H]2CCCCC/C=C\[C@@H]3C[C@@]3(C(=O)NS(=O)(=O)C3CC3)NC(=O)[C@@H]3C[C@@H](OC(=O)N4Cc5cccc(F)c5C4)CN3C2=O)s1 ) has pIC50 equal to > 7.00

Per the records, this compound ( CC(C)(C)OC(=O)N[C@H]1CCCCC/C=C\[C@@H]2C[C@@]2(C(=O)NS(=O)(=O)Cc2cc(C(F)(F)F)cc(C(F)(F)F)c2)NC(=O)[C@@H]2C[C@@H](OC(=O)N3Cc4cccc(F)c4C3)CN2C1=O ) has pIC50 equal to > 7.00

Per the records, this compound ( CC(C)(C)OC(=O)N[C@H]1CCCCC/C=C\[C@@H]2C[C@@]2(C(=O)NS(=O)(=O)Cc2ccc(F)c(F)c2)NC(=O)[C@@H]2C[C@@H](OC(=O)N3Cc4cccc(F)c4C3)CN2C1=O ) has pIC50 equal to > 7.00

Per the records, this compound ( Cc1ccc(S(=O)(=O)NC(=O)[C@@]23C[C@H]2/C=C\CCCCC[C@H](NC(=O)OC(C)(C)C)C(=O)N2C[C@H](OC(=O)N4Cc5cccc(F)c5C4)C[C@H]2C(=O)N3)cc1F ) has pIC50 equal to > 7.00

Per the records, this compound ( CC(C)(C)OC(=O)N[C@H]1CCCCC/C=C\[C@@H]2C[C@@]2(C(=O)NOc2ccc(-c3ccccc3)cc2)NC(=O)[C@@H]2C[C@@H](OC(=O)N3Cc4cccc(F)c4C3)CN2C1=O ) has pIC50 equal to > 7.00

Per the records, this compound ( CC(C)(C)OC(=O)N[C@H]1CCCCC/C=C\[C@@H]2C[C@@]2(C(=O)NS(=O)(=O)c2c(Cl)cccc2Cl)NC(=O)[C@@H]2C[C@@H](OC(=O)N3Cc4cccc(F)c4C3)CN2C1=O ) has pIC50 equal to > 7.00

Per the records, this compound ( CC(C)(C)OC(=O)N[C@H]1CCCCC/C=C\[C@@H]2C[C@@]2(C(=O)NS(=O)(=O)c2c(F)cccc2F)NC(=O)[C@@H]2C[C@@H](OC(=O)N3CCc4ccccc4C3)CN2C1=O ) has pIC50 equal to > 7.00

Per the records, this compound ( CC(C)(C)OC(=O)N[C@H]1CCCCC/C=C\[C@@H]2C[C@@]2(C(=O)NS(=O)(=O)c2ccc(Cl)cc2Cl)NC(=O)[C@@H]2C[C@@H](OC(=O)N3Cc4cccc(F)c4C3)CN2C1=O ) has pIC50 equal to > 7.00

These measurements were taken from patent US20090155209A1.
